The following substances have recorded K1/2 of the ATP-PPi exchange reaction catalysed by NAE, saturating ATP on Nedd8 activating enzyme (NAE), heterodimer of APPBP1 and Uba3 (UniProt Q13564).
Sequence (Q13564 whole entry, chain 1 of 2): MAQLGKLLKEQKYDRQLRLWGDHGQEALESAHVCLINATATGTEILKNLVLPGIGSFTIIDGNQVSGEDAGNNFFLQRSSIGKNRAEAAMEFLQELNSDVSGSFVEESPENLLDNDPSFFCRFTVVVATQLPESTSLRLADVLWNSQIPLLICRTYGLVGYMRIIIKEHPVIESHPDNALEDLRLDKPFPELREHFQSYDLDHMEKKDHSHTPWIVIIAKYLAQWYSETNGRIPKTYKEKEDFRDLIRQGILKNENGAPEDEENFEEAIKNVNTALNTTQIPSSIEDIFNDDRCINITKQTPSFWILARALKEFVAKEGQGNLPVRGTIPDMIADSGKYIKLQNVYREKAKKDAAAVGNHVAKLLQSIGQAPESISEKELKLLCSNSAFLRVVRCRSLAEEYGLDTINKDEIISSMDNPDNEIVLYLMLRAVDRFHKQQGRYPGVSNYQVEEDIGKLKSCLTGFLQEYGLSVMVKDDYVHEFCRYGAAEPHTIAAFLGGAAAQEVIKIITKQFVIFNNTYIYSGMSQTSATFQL
Sequence (Q8TBC4 whole entry, chain 2 of 2, further chain): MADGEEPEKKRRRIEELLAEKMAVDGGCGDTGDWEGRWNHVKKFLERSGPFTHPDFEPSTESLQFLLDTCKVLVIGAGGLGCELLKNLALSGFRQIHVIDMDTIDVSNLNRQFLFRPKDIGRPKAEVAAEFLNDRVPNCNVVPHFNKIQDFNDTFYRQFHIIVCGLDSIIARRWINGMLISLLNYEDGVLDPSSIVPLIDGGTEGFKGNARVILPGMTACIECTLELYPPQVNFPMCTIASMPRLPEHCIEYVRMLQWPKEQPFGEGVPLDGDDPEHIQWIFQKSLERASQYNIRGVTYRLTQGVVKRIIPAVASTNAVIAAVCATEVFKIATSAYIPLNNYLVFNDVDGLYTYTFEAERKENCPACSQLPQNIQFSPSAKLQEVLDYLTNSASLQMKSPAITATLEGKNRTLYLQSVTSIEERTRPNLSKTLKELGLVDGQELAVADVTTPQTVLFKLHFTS
In your response, the unit should come after the numeric value.

Nedd8 variant ND1 (71LQWFGG76), N-terminal GST fusion (from UniProt Q15843 1-76)    150 µM
Nedd8 variant ND20 (71ILTFGG76), N-terminal GST fusion (from UniProt Q15843 1-76)    0.45 µM
Nedd8 variant ND4 (71RLWFGG76), N-terminal GST fusion (from UniProt Q15843 1-76)    4.5 µM

Would you kindly look at the next entry?
Provide value of K1/2 of the ATP-PPi exchange reaction catalysed by NAE, saturating ATP for this record tested with Nedd8 activating enzyme (NAE), heterodimer of APPBP1 and Uba3 (UniProt Q13564): wt Nedd8 (71LALRGG76), N-terminal GST fusion (from UniProt Q15843 1-76) (natural protein) 1.3 µM
